# collection of pIC50 values tested on ovine COX-1 (Ovis aries, UniProt P05979)
# Sequence (P05979 25-600): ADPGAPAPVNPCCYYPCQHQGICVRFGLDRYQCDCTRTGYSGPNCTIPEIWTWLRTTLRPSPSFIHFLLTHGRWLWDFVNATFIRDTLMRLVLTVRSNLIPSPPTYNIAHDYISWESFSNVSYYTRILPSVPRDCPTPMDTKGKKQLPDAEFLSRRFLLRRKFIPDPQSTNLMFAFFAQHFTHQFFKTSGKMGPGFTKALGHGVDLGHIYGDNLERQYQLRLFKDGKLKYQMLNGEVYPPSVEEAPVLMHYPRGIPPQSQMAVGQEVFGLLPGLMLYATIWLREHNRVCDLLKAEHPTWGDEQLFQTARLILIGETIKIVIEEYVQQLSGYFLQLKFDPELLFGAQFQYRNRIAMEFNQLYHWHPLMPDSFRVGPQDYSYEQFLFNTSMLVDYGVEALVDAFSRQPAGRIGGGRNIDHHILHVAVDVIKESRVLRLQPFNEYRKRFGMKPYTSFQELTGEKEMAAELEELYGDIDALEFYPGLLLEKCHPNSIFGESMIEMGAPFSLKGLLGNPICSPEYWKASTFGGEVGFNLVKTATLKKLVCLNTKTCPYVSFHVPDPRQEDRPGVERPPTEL
pIC50: −log10 of the molar value.

{"compound": "O=C(c1cnc2[nH]nc(O)c2c1)c1ccc2ccccc2c1O [Compound 6]", "measured on": "ovine COX-1 (Ovis aries, UniProt P05979)", "pIC50": 2.97}
{"compound": "O=c1c(C=Nc2nc3ccccc3s2)coc2c1ccc1ccccc12 [Compound 12b]", "measured on": "ovine COX-1 (Ovis aries, UniProt P05979)", "pIC50": 2.87}
{"compound": "Cc1cnc(-n2cc(C(=O)c3ccc4ccccc4c3O)cc(C#N)c2=O)s1 [Compound 3g]", "measured on": "ovine COX-1 (Ovis aries, UniProt P05979)", "pIC50": 2.59}
{"compound": "N#Cc1cc(C(=O)c2ccc3ccccc3c2O)cn(-c2ccc(Br)cc2)c1=O [Compound 3d]", "measured on": "ovine COX-1 (Ovis aries, UniProt P05979)", "pIC50": 2.85}
{"compound": "CCOC1Oc2c(ccc3ccccc23)-c2n[nH]cc21 (centres unmarked) [Compound 10]", "measured on": "ovine COX-1 (Ovis aries, UniProt P05979)", "pIC50": 3.00}
